Experiment: yeast display, Sf9 membrane polyspecificity reagent, FACS + sequencing; frameworks hold sequencing errors
endpoint label: polyreactivity (PSR sort gate)

Take a look at these entries with their results.
QVQLVESGGGLFQAGGSLRLSCAASGRIVGLYAMGWYRPAPGKERELVAAISRGGSTNYADSVKGRFTISRDNAKNTVYLQMNSQKPEDPAVYYCNARYVKYYTYLYNYDYWGQGTQVTVSS high polyreactivity
QVQLVESGGGLVQAGGSLRLSCAASGSTFDSYAMGWYRQAPGKERELVAAITTTGGSTFYADSVKGRFTISRDNAKNTVYLQMNSLKPEDTAVYFCAADDGWQEFEYWGQGTQVTVSS low polyreactivity
QVQLVESGGGIVQAGGSLRLSCAASGRLFYYYAMGWDRQAPGTERELVAVISRGVITYYADSVKGRFTISRDTAKNTVYLQMNSLKPEDTAVYYCAVSYPHYIYSYGYWGQGTQVTVSS high polyreactivity
QVQLVETGRGLVQAGGSLRLSCAASGLILVPNTMGWYRQAPGTERELVAAISYSGGGPYYADSVKGRFTLSRDNATNTVYLQMNSLKPEDTAVYSCAAYDKRESPPYGYWGQGTQVTVSS low polyreactivity
QVQLVESGGGLVQAGGSLRLSCAASGRTFIYYAMGWNRQAPGKERELVAGITYSVGSTYYADSVKGRFTISRDNEKNTVYLQMNSLKPEDTAVYYCAADATFESDWGQGTQVTVSS low polyreactivity

Request: Report measured polyreactivity (PSR sort gate); entry is QVQLVESGGGLVQAGGSLRLSCAASGFTFWLYAMGWYRQAPGKEREFVAAISTSGGSTYADSVKGRFTISRDNAKNTVYLQMNSLKPEDTAVYYCNADPTTTTYRHQYNYWGQGTQVTVSS
Response: low polyreactivity

Request: Name the recorded polyreactivity (PSR sort gate) of the item QVQLVESGGGLVQAGGSLRLSCAASGSIFRGNAIGWYRQAPGKDRELVAAISWNGVSTYYADSVKGRFTISRDNAKHTVYLQMNSLKPEDTAVYYCPTVGLRRLFVKPGTLKDYWGQGTQVTVSS in your answer.
Response: low polyreactivity

Request: For the sequence QVQLVESGGGLVQAGGSLRLSCAASGFIFEPYAMGWYRQAPGTERELVAAISATDDSTYYADSVKGRFTISRDNAKNTVYLQMNSLKPEDTAVYYCNATYYIIALPYDYWGQGTQVTVSS , report polyreactivity (PSR sort gate).
Response: low polyreactivity

Request: Supply measured polyreactivity (PSR sort gate) of QVQLVESGGGLVQAGGSLRFSCAASGSIFYVYAMGWYRQAPGKERELVAAIRWSGGSTYYADSVKGRFTISRDNAKKSVYLQMNSLKPEDTAVYYCAADAIPDSVCYWEYDYWGQGTQVTVSS in your reply.
Response: low polyreactivity

Request: Tell me measured polyreactivity (PSR sort gate) for HVQLVESGGGLVQAGGSLRLSCAASGFIFWRYAMGWYRQAPGKERELVAAISVSGTRTYYADSVKGRFTISRDNAKNTVYLQMNSLKPEDTAVYYCAADRYYGEDYWGQGTQVTVSS please.
Response: high polyreactivity

Request: Please report polyreactivity (PSR sort gate) for the following sequence: QVQLVESGGGLVQAGGSLRLSCAASGSTWWYDMGWSRQAPGKERELVASISSGDSTNYADSVKGRFTISRDNAKNTVYLQMNSLKPEDTAVYYCAADKNSRPAGKGSTGYGYDYWGQGTQVNVSS
Response: low polyreactivity

###

Assay: yeast display, Sf9 membrane polyspecificity reagent, FACS + sequencing; frameworks hold sequencing errors
endpoint label: polyreactivity (PSR sort gate)

Known polyreactivity (PSR sort gate) results, listed for orientation:
QVQLVESGGRLVQAGGSHRLSCAASGRTFVENAMGWYRQAPGQEREFVAAISSSGDSTYYADSVKGRFTISRDNEKYTVYLKMNSLNPEDTAVYYCAARVYSRGLFYWGEGTQVTVSS low polyreactivity
QVQLVESGGGLVQAGGSLRLSCAASGSTFLKNAMGWSRQAPGKERELVAAISYSTTRTYYADSVKGRFTISRDNAKNTVYLQMNSLKPEDTAVYYCNKASYWGSGFDYWGQGTQVTVSS low polyreactivity
QVQLVESGGGLVQAGGSLRLSCAASGGIFSSYAMGWYRPAPGKERELVAAIDSDGTTYYADSVKGRFTISRDNAKNTVYLQMNSLKPEDTAVYYCATGYPVRYRGYLNWSYYAYDYWGQGTQVTVSS low polyreactivity
QVQLVESGGGLVQAGGSLRLSCAASGFTIYRYAMGWYRQAPGKERELVAAISSIGGSTYYADSVKGRFTISRDNSKNTVYLQMNSLKPEDTAVYYCAAAISLYSYDYWGQGTQVTVSS low polyreactivity
QVQLVESGGGLVQAGGSLRLSCAASGRTFLVNAMGWYRQAPGKERELVAVMTRGGSTNYADSVKGRFTISRDNAKNTVYLQMNSLKPEDTAVYYCAKQFSPYRSYGPVVRYDYWGQGTQVTVSS low polyreactivity
QVQLVESGGGLVQAGGSLRLSCAASGSTFWVNAMGWYRQAPGKVRELVAAIRRGGSTKYADSVKGRFTISRDNAKNTFYLQINSLKPEDTAVSYCAADAPGHEYYYWGQGTQVTVSS high polyreactivity
QVQLVESGGRLVQAGGSLRLSCAASGISFNYYAMGWYRQAPGKEREMVAGITSGGSTYYADSVKGRFTISRDNAKNTVYLQMNSLKTEDTAVYYCATRVRDGSQTPYRRGHSYDYWGQGTQVTVSS high polyreactivity
QVQLVESGGGLVQAGGSLRLSCAASGSIFVGNAMGWSRQAPGKERELVATISRGARRKYADSVKGRFTISRDNAKNTVYLQMNSLIPEDTAVYYCNKVTSYYVFYTPYYSWGQGTQVTVSS low polyreactivity
QVQLVESGGGLFQAGGSLRLSCAASGSIFSWNDIGRYIQAPGKERELVAAITSGGSTYYADSVKGRFTISRDNAKNTVYLQMNSLKPEDTAVYYCAAGQDLHDFDYWGQGTQVTVSS low polyreactivity
QVQLVESGGGLVQAGGSLRLSCAASGSTFHPYAMGRYRQAPGKERELVAAITWRVGSTYYADSVKGRFTISRDNAKNSVYLQMNSLKPEDTAVYYCAVSYLSTLGRSRYDYWGQGTQVTVSS low polyreactivity

Attention now shifts to the item below.
Request: Recall and state the measured polyreactivity (PSR sort gate) for QVQLVESGGGLVQAGGSLRLSCAASGIIFVYYDMGWYRQAPGKERELVASISRGGSTYYADSVKGRFTISRDNAKNTVYLQMNSLKPEDTAVYYCAAVPSYLGYWGQGTQVTVSS .
Response: high polyreactivity

###

Assay: yeast display, Sf9 membrane polyspecificity reagent, FACS + sequencing; frameworks hold sequencing errors
endpoint label: polyreactivity (PSR sort gate)

Known results for sequences:
QVQLEESGGGLVQAGGSHRLSCAASGITFSLYAMGWYRQAPGKERELVATIDSGGSTNYADSVKGRFTISRDNAKNTVYLQMNSLIPEDTAVYYCAADGVWYYYDMDYWGQGTQVTVSS low polyreactivity
QVQLVESGGGLVQAGGSLRLSCAASGRTFYGYAMGWYRQAPGKERELVAVITSGVRTNYADSVKGRFTISRDNAKNTVYLQMNSLKPEDTAVYYCAARGTLALRDHYGYWGQGTQVNVSS high polyreactivity
QVQLVESGGGLVQAGGSLRLSCAASGRIFYYYAMGWYRQAPGKERELVADITWSGGSTYYADSVKGRFTISRDNAKNTVYLLRNSLKPEDTAVYYCNAVSFNYLLEYDYWGQGTQVTVSS high polyreactivity
QVQLVESGGGLVQAGGSLRLSCAASGITFYDYTMGWYRQAPGKERELVAAISSRGGSTYYADSVKGRFTISRDNAKNTVYLQMNSLKPEDTAVYYCNADYIYSFYWSFYEYDYWGQGTQVTVSS high polyreactivity

Request: State its polyreactivity (PSR sort gate): QVQLVESGGGLVQAGGSLRVSCAASGITFNEYAMGWYRQAPGKEREFVAAITFSGDSTYADSVKGRFTISRDNAKNTVYLQMNSLKPEDTAVYYCAKRGGRQTYYYWGQGTQVTVSS
Response: high polyreactivity

Request: Name the recorded polyreactivity (PSR sort gate) of the sequence listed here: QVQLVESGGGLVQAGGSLRLSCAASGNTFSYNAMGWYRQAPGKEKELVAGITWSGGSTYYADSVKGRFTISRDNAKNTVYLQMNSLKPEDTAVYYCAKGYGSGVVRSRWSKYGYWGQGTQVTVSS
Response: high polyreactivity

Request: Using known records, supply polyreactivity (PSR sort gate) for QVQLVESGGGLVQAGGSLRLSCAASGFIFYSYAMGWYRQAPGKERELVAAITSSGGNTYYADSVKGRFTISRDNAKNTGYLQMNSLKPEDTAVYYCNRDRKRGYPYQPYDYWGQGTQVTVSS
Response: high polyreactivity

Request: Look up and report measured polyreactivity (PSR sort gate) for this entry: QVQLVESGGGLVQAGGSLRLSCAASGRIFFGYAMGWYRQAPGKEREFVAAINWIGGRTYYADSVKGRFTISRDNAKNTVYLQMNSLKPEDTAVYYCAKEVSPYWTFDYWGQGSQVTVSS
Response: low polyreactivity

Request: Give a short answer stating reported polyreactivity (PSR sort gate) for QVQLVESGGGLVQAGGSLRLSCAASGRSFTGYAMGWYRQATGKERELVASISDSGASTYYADSVKGRFTISRDNAKNTVYLLMNSLKPEDTAVFYCAASYPSYNWSVGDDDYWGQGTQVTVSS .
Response: low polyreactivity

Request: Give recorded polyreactivity (PSR sort gate). QVQLVESGGGLVQAGGSLRLSCAASGRTLWVYAMGWYRQAPGKERELVAAITSSGVSTDYADSVKGRFTISRDNAKNTVYLQINSLKPEDTAVYYCAKRYWSRYAQYDYWGQGTQVTVSS
Response: low polyreactivity
